targetSystem: EHMT1 (Homo sapiens, UniProt Q9H9B1)
Sequence (Q9H9B1 whole entry): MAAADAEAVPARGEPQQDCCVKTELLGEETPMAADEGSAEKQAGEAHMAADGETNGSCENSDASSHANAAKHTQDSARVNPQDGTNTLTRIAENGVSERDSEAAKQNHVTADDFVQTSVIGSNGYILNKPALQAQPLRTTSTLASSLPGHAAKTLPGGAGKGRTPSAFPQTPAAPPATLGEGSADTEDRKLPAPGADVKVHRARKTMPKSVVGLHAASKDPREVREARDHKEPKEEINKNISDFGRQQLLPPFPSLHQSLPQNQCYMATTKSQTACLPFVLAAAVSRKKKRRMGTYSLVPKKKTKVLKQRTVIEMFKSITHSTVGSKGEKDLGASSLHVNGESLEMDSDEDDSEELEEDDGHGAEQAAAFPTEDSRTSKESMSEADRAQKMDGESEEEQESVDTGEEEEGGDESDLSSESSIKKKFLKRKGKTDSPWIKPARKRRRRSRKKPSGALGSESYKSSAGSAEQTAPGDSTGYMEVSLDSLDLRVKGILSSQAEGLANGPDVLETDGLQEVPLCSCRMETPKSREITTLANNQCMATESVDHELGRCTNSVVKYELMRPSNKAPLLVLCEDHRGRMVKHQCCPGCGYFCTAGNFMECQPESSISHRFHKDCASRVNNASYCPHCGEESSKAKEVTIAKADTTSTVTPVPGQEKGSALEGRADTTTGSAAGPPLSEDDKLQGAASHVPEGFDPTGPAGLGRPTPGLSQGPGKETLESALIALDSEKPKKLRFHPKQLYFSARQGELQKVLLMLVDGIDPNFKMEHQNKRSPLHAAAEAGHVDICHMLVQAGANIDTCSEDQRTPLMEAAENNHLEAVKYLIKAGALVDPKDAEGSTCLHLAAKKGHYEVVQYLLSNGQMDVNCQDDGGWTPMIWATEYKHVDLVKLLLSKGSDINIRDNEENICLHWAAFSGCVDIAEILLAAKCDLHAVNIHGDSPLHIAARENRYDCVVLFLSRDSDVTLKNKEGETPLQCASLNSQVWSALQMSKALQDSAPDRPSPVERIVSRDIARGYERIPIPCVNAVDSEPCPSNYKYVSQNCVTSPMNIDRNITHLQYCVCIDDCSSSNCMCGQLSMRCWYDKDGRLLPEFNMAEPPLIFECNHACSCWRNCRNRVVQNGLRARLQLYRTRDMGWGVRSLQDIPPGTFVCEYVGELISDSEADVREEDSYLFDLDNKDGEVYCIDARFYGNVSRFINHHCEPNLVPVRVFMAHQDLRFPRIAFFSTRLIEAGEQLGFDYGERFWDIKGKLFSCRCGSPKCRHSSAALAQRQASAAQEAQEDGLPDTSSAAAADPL
measurementDescription: EHMT1 PEP (EHMT1 peptide enzyme assay)
Format: biochemical
recordedConditions: peptide substrate enzyme assay
parameter: IC50

| molecule | assayResult |
| --- | --- |
| CNC1=Nc2cc(-c3cc4[nH]ccc4nc3C)c(OC)cc2C12CCC2 | < 0.1 µM |

Inquiry: Report IC50 for "CNc1cc(C)nc(Nc2ccc(OC)c(-c3cc4[nH]ccc4cn3)c2F)n1" tested on EHMT1 (Homo sapiens, UniProt Q9H9B1).
Reply text: < 0.1 µM

Inquiry: Form: Entry = "CNc1nc2cc(-c3cc4ccncc4[nH]3)c(C)cc2n1C" | System = EHMT1 (Homo sapiens, UniProt Q9H9B1) | IC50 = ____
Reply text: < 0.1 µM

* * *

IC50 by entry:
targetSystem: EHMT1 (Homo sapiens, UniProt Q9H9B1)
measurementDescription: EHMT1 PEP (EHMT1 peptide enzyme assay)
Assay type: biochemical
recordedConditions: peptide substrate enzyme assay

| compound | IC50 |
| --- | --- |
| CNc1cc(C)nc(Nc2cnc(OC)c(-n3cc(CN(C)C)cn3)c2)n1 [Compound 74] | < 0.1 µM |
| CNC(=O)c1nn(-c2cc(Nc3nc(C)cc(NC)n3)ccc2OC)cc1C [Compound 134] | > 10 µM |
| CCc1ccc(Nc2nc(C)cc(NC)n2)cc1-n1cc(CNC)cn1 [Compound 320] | < 0.1 µM |
| COc1cc2c(cc1-c1cc3ccncc3[nH]1)N=C(N)C21CCC1 [Compound 202] | < 0.1 µM |
| CNc1cc(C)nc(Nc2ccc(Cl)c(-c3cc4c(cn3)CC(=O)N4)c2)n1 [Compound 260] | 0.1 to 1 µM |
| CNc1cc(C)nc(Nc2ccc(C)c(-c3nc4ccncc4[nH]3)c2)n1 [Compound 279] | < 0.1 µM |
| CNc1cc(C)nc(Nc2ccc(OC)c(-c3cc4[nH]ccc4nc3C)c2)n1 [Compound 228] | < 0.1 µM |
| CNc1cc(C)nc(Nc2ccc(OC)c(-c3c(C)nc4cnccn34)c2)n1 [Compound 39] | > 10 µM |

Now for a further compound.
Inquiry: Find the recorded IC50 belonging to CNc1cc(C)nc(Nc2ccc(OC)c(-c3cc4c(cn3)CC(=O)N4)c2)n1 [Compound 219] and report it.
Reply text: 0.1 to 1 µM

* * *

targetSystem: EHMT1 (Homo sapiens, UniProt Q9H9B1)
measurementDescription: EHMT1 PEP (EHMT1 peptide enzyme assay)
Format: biochemical
recordedConditions: peptide substrate enzyme assay
Quick reference for IC50 among some compounds

Examples from the recorded data:
| compound | IC50 |
| --- | --- |
| CNC(=O)c1cn(-c2cc(Nc3nc(C)cc(NC)n3)ccc2OC)nn1 [Compound 117] | > 10 µM |
| CNc1cc(C)nc(Nc2ccc(C)c(-n3cc4cnccc4n3)c2)n1 [Compound 282] | < 0.1 µM |
| CNc1cc(C)nc(Nc2ccc(OC)c(-n3cc(C)c(CN(C)C)n3)c2)n1 [Compound 102] | 0.1 to 1 µM |
| CNc1cc(C)nc(Nc2ccc(OC)c(-c3nc4cnccc4[nH]3)c2)n1 [Compound 47] | 1 to 10 µM |

Okay, next one:
Inquiry: Could you share which IC50 value was measured for CNc1ccnc(Nc2ccc(OC)c(-c3ccc4cc[nH]c4c3)c2)n1 [Compound 178] ?
Reply text: > 10 µM
